Every entry's value here was drawn from patent US12290596B2.

Measurement description: Three-treatment crossover pharmacokinetics of IN nalmefene, three dosing regimens (Example 13)
Measurement conditions: human, plasma, other: intranasal (IN) spray, 3 mg, […], Max, T1 (3 mg IN, one spray in one nostril); time 0.250
Measurement type: concentration at […] (µg/mL)

[
  {
    "Entry smiles": "C=C1CC[C@@]2(O)[C@H]3Cc4ccc(O)c5c4[C@@]2(CCN3CC2CC2)[C@H]1O5",
    "Value measured": 0.0221
  }
]

---

Measurement description: Two-period crossover pharmacokinetics of nalmefene 3 mg IN vs 1.0 mg IM (Example 12)
Measurement conditions: human, plasma, other: intranasal, 3 mg, AUC0-10 min, Treatment A: 3.0 mg nalmefene hydrochloride IN; plasma; Geo. Mean, n 66

[
  {
    "Entry smiles": "C=C1CC[C@@]2(O)[C@H]3Cc4ccc(O)c5c4[C@@]2(CCN3CC2CC2)[C@H]1O5",
    "Units text": "ng·h/mL",
    "AUC(0-t)": 0.523
  }
]

---

Measurement description: Three-treatment crossover pharmacokinetics of IN nalmefene, three dosing regimens (Example 13)
Measurement conditions: human, plasma, other: intranasal (IN spray), 6 mg, AUCinf, mean, Treatment B (T2) 3 mg in each nostril (6 mg)

[
  {
    "Molecule": "C=C1CC[C@@]2(O)[C@H]3Cc4ccc(O)c5c4[C@@]2(CCN3CC2CC2)[C@H]1O5 [Nalmefene]",
    "AUC(0-inf)": "89.5 ng·h/mL"
  }
]

---

Measurement description: Three-treatment crossover pharmacokinetics of IN nalmefene, three dosing regimens (Example 13)
Measurement conditions: human, plasma, other: intranasal, 3 mg, […], Min, T1 (3 mg IN, one spray in one nostril); time 0.333
Measurement type: concentration at […] (ng/mL)

[
  {
    "Molecule": "C=C1CC[C@@]2(O)[C@H]3Cc4ccc(O)c5c4[C@@]2(CCN3CC2CC2)[C@H]1O5 [Nalmefene]",
    "Measurement type": "concentration at […]",
    "Units text": "ng/mL",
    "Value measured": 1.97
  }
]

---

Measurement description: Three-treatment crossover pharmacokinetics of IN nalmefene, three dosing regimens (Example 13)
Measurement conditions: human, plasma, other: intranasal, 3 mg, […], Min, T1 (3 mg IN, one spray in one nostril); time 0.125

[
  {
    "Molecule": "C=C1CC[C@@]2(O)[C@H]3Cc4ccc(O)c5c4[C@@]2(CCN3CC2CC2)[C@H]1O5 [Nalmefene]",
    "Units text": "ng/mL",
    "concentration at […]": 0.642
  }
]

---

Measurement description: Three-treatment crossover pharmacokinetics of IN nalmefene, three dosing regimens (Example 13)
Measurement conditions: human, plasma, other: intranasal (IN spray), 6 mg, […], Mean; Time 0.0833; T3: 6 mg nalmefene HCl IN, two 0.1 mL sprays in one nostril
Measurement type: concentration at […] (ng/mL)

[
  {
    "Molecule": "C=C1CC[C@@]2(O)[C@H]3Cc4ccc(O)c5c4[C@@]2(CCN3CC2CC2)[C@H]1O5 [Nalmefene]",
    "Value measured": 5.05
  }
]

---

Measurement description: Three-treatment crossover pharmacokinetics of IN nalmefene, three dosing regimens (Example 13)
Measurement conditions: human, plasma, other: intranasal (IN spray), 6 mg, AUClast, mean, Treatment C (T3) 6 mg in one nostril

[
  {
    "Compound": "C=C1CC[C@@]2(O)[C@H]3Cc4ccc(O)c5c4[C@@]2(CCN3CC2CC2)[C@H]1O5 [Nalmefene]",
    "Units text": "ng·h/mL",
    "AUC(0-t)": 82.1
  }
]
